Target: T1, alpha-s1 casein from Bos taurus
T1 chain: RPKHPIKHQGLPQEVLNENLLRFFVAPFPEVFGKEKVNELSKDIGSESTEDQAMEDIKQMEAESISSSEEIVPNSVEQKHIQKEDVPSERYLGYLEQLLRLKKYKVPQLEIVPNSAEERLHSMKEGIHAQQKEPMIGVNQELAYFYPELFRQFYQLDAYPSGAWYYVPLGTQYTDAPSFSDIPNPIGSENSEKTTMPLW
experimentalReadout: αs1 CN, 6 hours, 11° C. (Volume)
Your answer is read as Volume, so omit the unit and give the number.

Could you share which αs1 CN, 6 hours, 11° C. value was measured for camel chymosin variant #158 (L295F) (protein) GKVAREPLTSYLDSQYFGKIYIGTPPQEFTVVFDTGSSDLWVPSIYCKSNVCKNHHRFDPRKSSTFRNLGKPLSIHYGTGSMEGFLGYDTVTVSNIVDPNQTVGLSTEQPGEVFTYSEFDGILGLAYPSLASEYSVPVFDNMMDRHLVARDLFSVYMDRNGQGSMLTLGAIDPSYYTGSLHWVPVTLQQYWQFTVDSVTINGVAVACVGGCQAILDTGTSVLFGPSSDILKIQMAIGATENRYGEFDVNCGNLRSMPTVVFEINGRDYPLSPSAYTSKDQGFCTSGFQGDNNSEFWILGDVFIREYYSVFDRANNRVGLAKAI ?
2.63e+07

Data origin: patent US20150140169
